# System: human PDE
# MEASUREMENT NOTES: Inhibition of PDE in leukocyte homogenate preparation (human PDE assays, Dr. Hanifin)
# Type: biochemical
# CONDITION PARAMETERS: human leukocyte homogenate preparation
# Source text: See Grewe et al., J. Allergy Clin. Immunol., v. 70, pp. 452-457, 1982. […] Dr. Hanifin has a source of human PDE isolated from mononuclear leukocyte. They were approached and readily agreed to test 5-[3-(exo-bicyclo[2.2.1]hept-2-yloxy)-4-methoxyphenyl]-3,4,5,6-tetrahydropyrimidin-2(1H)-one in their human PDE assays (see Cooper et al., cited above).
RECORDED ENDPOINT: IC50
Give me the value, and tack the unit on after it.

So what does the record say about IC50 for COc1ccc(C2CNC(=O)NC2)cc1O[C@@H]1C[C@H]2CC[C@@H]1C2 (relative stereo) ?
200 nM
